- tested on: human 5-HT2A receptor (Homo sapiens, UniProt P28223)
- Construct: host or cells: CHO-K1
- Sequence (P28223 whole entry): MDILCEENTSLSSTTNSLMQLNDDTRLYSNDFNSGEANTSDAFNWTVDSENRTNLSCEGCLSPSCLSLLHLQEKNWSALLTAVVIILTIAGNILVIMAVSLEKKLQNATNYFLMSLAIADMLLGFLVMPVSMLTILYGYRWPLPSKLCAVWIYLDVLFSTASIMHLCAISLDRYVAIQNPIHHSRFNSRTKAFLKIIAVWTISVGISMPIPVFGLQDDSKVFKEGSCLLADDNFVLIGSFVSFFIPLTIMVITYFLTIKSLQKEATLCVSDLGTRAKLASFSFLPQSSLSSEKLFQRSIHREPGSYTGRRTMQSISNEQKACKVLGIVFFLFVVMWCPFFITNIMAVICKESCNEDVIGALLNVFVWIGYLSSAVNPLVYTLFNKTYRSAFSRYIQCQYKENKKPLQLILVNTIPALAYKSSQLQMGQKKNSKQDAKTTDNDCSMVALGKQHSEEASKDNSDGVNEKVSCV
- experimental details: 5HT2A Antagonism Assay (Euroscreen FAST-05051), IP-One HTRF
- Type: cell-based
- condition parameters: 5-HT2A (IC50), CHO-K1 cells expressing human 5-HT2A, reference agonist at EC80, IP-One
pIC50: −log10 of the molar value.
Entries and their pIC50

See these solved cases before continuing.
compound	pIC50
CCNCC1Cc2ccccc2Oc2cccnc21 (single isomer, unassigned)	5.00 to 6.00
CCc1ccc2c(n1)C(CN)Cc1ccccc1O2 (single isomer, unassigned)	> 6.00
NCC1Cc2c(F)cccc2Oc2cccnc21 (single isomer, unassigned) [Compound 137]	< 5.00
NCC1Cc2ncc(F)cc2Oc2ccccc21 (single isomer, unassigned)	> 6.00
NCC1Cc2cccnc2Oc2ccccc21 (single isomer, unassigned) [Compound 18]	< 5.00

// next item, pIC50 requested
Would you mind telling me what pIC50 value was observed for CNCC1Cc2cc(F)ccc2Oc2ccccc21 (single isomer, unassigned) ? > 6.00

====

- tested on: human 5-HT7 receptor (Homo sapiens)
- Sequence (P34969 whole entry): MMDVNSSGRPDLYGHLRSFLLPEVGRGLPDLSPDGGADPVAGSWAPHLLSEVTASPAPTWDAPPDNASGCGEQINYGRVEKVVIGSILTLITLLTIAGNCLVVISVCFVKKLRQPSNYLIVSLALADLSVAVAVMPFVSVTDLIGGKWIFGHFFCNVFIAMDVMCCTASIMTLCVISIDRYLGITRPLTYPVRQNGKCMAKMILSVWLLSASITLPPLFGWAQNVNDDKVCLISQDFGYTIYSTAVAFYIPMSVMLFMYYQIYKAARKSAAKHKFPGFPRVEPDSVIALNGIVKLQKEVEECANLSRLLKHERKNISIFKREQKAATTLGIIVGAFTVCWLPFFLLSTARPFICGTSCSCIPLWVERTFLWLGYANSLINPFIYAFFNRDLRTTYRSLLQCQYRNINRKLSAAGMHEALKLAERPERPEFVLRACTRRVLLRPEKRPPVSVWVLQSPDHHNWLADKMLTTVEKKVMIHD
- experimental details: 5HT7 Antagonism Assay (Euroscreen FAST-0499C), cAMP HTRF
- condition parameters: CHO-K1 cells expressing human 5-HT7, reference agonist at EC80, cAMP HTRF
- Method: 5HT7 Antagonism Assay Protocol (Euroscreen FAST-0499C) CHO-K1 cells expressing the human 5-HT7 receptor, grown prior to the test in media without antibiotic, were detached by gentle flushing with PBS-EDTA (5 mM EDTA), recovered by centrifugation and resuspended in assay buffer (Krebs-Ringer HEPES buffer: 5 mM KCl, 1.25 mM MgSO4, 124 mM NaCl, 25 mM HEPES, 13.3 mM Glucose, 1.25 mM KH2PO4, 1.45 mM CaCl2), 0.5 g/l BSA, supplemented with 1 mM IBMX). […]
pIC50: −log10 of the molar value.
Entries and their pIC50

See these solved cases before continuing.
compound	pIC50
CNCC1Cc2ncccc2Oc2ccc(C#N)cc21 (single isomer, unassigned) [Compound 162]	≤ 5.00
NCC1Cc2ccccc2Oc2cc(F)ccc21 (single isomer, unassigned) [Compound 2]	≤ 5.00
CNCC1Cc2ccc(C)cc2Oc2cccnc21 (single isomer, unassigned) [Compound 135]	5.00 to 6.00
CNCC1Cc2c(C)cccc2Oc2cccnc21 (single isomer, unassigned)	≤ 5.00
CNCC1Cc2cc(F)ccc2Oc2ccccc21 (single isomer, unassigned)	5.00 to 6.00
NCC1Cc2ncccc2Oc2cccc(F)c21 (single isomer, unassigned)	≤ 5.00
CNC[C@@H]1Oc2ccccc2Oc2ccncc21 (single isomer, unassigned)	≤ 5.00

// next item, pIC50 requested
Would you mind telling me what pIC50 value was observed for CNCC1Cc2ccccc2Oc2cc(F)ccc21 (single isomer, unassigned) [Compound 3] ? 5.00 to 6.00

====

Entries and their EC50
- tested on: human TAAR1 receptors (Homo sapiens)
- Sequence (Q96RJ0 whole entry): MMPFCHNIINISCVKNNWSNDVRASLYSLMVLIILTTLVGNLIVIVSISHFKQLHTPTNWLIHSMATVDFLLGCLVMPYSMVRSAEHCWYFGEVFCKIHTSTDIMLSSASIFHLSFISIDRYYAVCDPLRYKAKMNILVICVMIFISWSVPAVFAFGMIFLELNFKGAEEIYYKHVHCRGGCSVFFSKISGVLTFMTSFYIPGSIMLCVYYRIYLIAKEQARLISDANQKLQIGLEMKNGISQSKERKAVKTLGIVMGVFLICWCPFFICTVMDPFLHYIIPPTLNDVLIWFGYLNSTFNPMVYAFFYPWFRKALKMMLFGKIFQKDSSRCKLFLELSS
- experimental details: TAAR1 Agonism Assay: cAMP HTRF assay for Gs coupled receptor TAAR1 (Euroscreen FAST-0987C)
- condition parameters: CHO-K1 cells expressing human TAAR1, cAMP HTRF

See these solved cases before continuing.
molecule	val
CNCC1Cc2cccc(F)c2Oc2ccccc21 (single isomer, unassigned) [Compound 87]	< 1 µM
NCC1Cc2ncccc2Oc2ccc(Cl)cc21 (single isomer, unassigned) [Compound 167]	< 1 µM
CNCC1Cc2ccccc2Oc2c(F)cccc21 (single isomer, unassigned) [Compound 102]	< 1 µM

Would you mind telling me what EC50 value was observed for CNC[C@H]1c2ncccc2Oc2ccccc2[C@@H]1C (stereo in doubt) ? 1 to 10 µM
